target: human GLP-1 receptor (human, UniProt P43220 24-463); experiment: cell-based or functional assay
Bridges are numbered along the chain shown (N, C = ends). Where no end group is shown, it is not given here. [ ]: non-standard residue; d: D form. The star is where a group is joined. Acetyl(2-(4-imidazolyl)) = O=C(Cc1c[nH]cn1)*; Aib = CC(C)(N)C(=O)O
For each record, check the reported In vitro activity compared with native peptide (%) vs. GLP-1: if it is below 20% write MET, else write NOT MET.

Reference set, count: 6
H[Aib]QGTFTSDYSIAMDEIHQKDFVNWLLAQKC (bridge 16-20) [Triple agonist of SEQ ID NO: 33]
NOT MET
H[Aib]QGTFTSDVSSYLDGQAAKEFVAWLLKGC [Triple agonist of SEQ ID NO: 6]
MET
Y[Aib]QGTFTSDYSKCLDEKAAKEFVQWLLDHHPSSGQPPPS (bridge 16-20) [Triple agonist of SEQ ID NO: 68]
NOT MET
Y[Aib]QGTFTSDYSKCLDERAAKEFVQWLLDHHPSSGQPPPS (bridge 16-20) [Triple agonist of SEQ ID NO: 69]
NOT MET
H[Aib]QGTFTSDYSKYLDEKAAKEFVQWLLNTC (bridge 16-20) [Triple agonist of SEQ ID NO: 29]
NOT MET
[Acetyl(2-(4-imidazolyl))][Aib]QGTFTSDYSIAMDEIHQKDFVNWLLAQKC (bridge 16-20) [Triple agonist of SEQ ID NO: 92]
MET

Lookup: Dear colleague, could you confirm whether In vitro activity compared with native peptide (%) vs. GLP-1 of Y[Aib]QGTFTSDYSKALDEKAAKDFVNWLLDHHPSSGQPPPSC (bridge 16-20) [Triple agonist of SEQ ID NO: 99] falls below 20%? Thanks.
Found: NOT MET

Lookup: Dear colleague, could you confirm whether In vitro activity compared with native peptide (%) vs. GLP-1 of {Acetyl(2-(4-imidazolyl))}-[Aib]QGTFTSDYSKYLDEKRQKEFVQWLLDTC (bridge 15-19) [Triple agonist of SEQ ID NO: 82] falls below 20%? Thanks.
Found: MET

Lookup: Dear colleague, could you confirm whether In vitro activity compared with native peptide (%) vs. GLP-1 of H[Aib]QGTFTSDYSKYLDGQHAQCFVAWLLAGGGPSSGAPPPS [Triple agonist of SEQ ID NO: 39] falls below 20%? Thanks.
Found: MET

Lookup: Dear colleague, could you confirm whether In vitro activity compared with native peptide (%) vs. GLP-1 of Y[Aib]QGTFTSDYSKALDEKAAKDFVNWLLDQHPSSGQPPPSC (bridge 16-20) [Triple agonist of SEQ ID NO: 102] falls below 20%? Thanks.
Found: NOT MET

Lookup: Dear colleague, could you confirm whether In vitro activity compared with native peptide (%) vs. GLP-1 of H[Aib]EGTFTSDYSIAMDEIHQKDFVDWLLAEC (bridge 16-20) [Triple agonist of SEQ ID NO: 54] falls below 20%? Thanks.
Found: NOT MET

Lookup: Dear colleague, could you confirm whether In vitro activity compared with native peptide (%) vs. GLP-1 of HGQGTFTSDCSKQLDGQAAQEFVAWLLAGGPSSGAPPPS [Triple agonist of SEQ ID NO: 44] falls below 20%? Thanks.
Found: MET

Lookup: Dear colleague, could you confirm whether In vitro activity compared with native peptide (%) vs. GLP-1 of Y[Aib]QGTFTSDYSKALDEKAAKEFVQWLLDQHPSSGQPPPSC (bridge 16-20) [Triple agonist of SEQ ID NO: 100] falls below 20%? Thanks.
Found: NOT MET

Lookup: Dear colleague, could you confirm whether In vitro activity compared with native peptide (%) vs. GLP-1 of [Acetyl(2-(4-imidazolyl))]GQGTFTSDLSIQYDSEHQRDFIEWLKDTGPSSGAPPPSHG [Triple agonist of SEQ ID NO: 19] falls below 20%? Thanks.
Found: MET

Lookup: Dear colleague, could you confirm whether In vitro activity compared with native peptide (%) vs. GLP-1 of H[Aib]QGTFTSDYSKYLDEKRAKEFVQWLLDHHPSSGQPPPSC (bridge 16-20) [Triple agonist of SEQ ID NO: 50] falls below 20%? Thanks.
Found: NOT MET

Cited source: patent US20240024426A1
